Entry source: ChEMBL document CHEMBL3885861

species on record: Rattus norvegicus; assay: Open TG-GATES - Regimen: Single; type: toxicity, organism-based, Sprague-Dawley; parameters: regimen Single, gender Male, age 6 weeks; conditions: in vivo, po, 1000 mg/kg, 24 h, tissue Plasma, route gavage, dose level High
// A/G lookup, one value per entry
metric: A/G

[[record]]
mol_smiles = "CNC(=C[N+](=O)[O-])NCCSCc1ccc(CN(C)C)o1"
recorded_measurement = 1.6

[[record]]
mol_smiles = "CN/C(=N/CCSCc1nc[nH]c1C)NC#N"
recorded_measurement = 1.6

[[record]]
mol_smiles = "Cc1nnc2n1-c1ccc(Cl)cc1C(c1ccccc1Cl)=NC2"
recorded_measurement = 0.9

[[record]]
mol_smiles = "O=C(OC[C@H]1O[C@@H](OC(=O)c2cc(O)c(O)c(OC(=O)c3cc(O)c(O)c(O)c3)c2)[C@H](OC(=O)c2cc(O)c(O)c(OC(=O)c3cc(O)c(O)c(O)c3)c2)[C@@H](OC(=O)c2cc(O)c(O)c(OC(=O)c3cc(O)c(O)c(O)c3)c2)[C@@H]1OC(=O)c1cc(O)c(O)c(OC(=O)c2cc(O)c(O)c(O)c2)c1)c1cc(O)c(O)c(OC(=O)c2cc(O)c(O)c(O)c2)c1"
recorded_measurement = 1.9


====

// APTT lookup, one value per entry
species: Rattus norvegicus; assay: Open TG-GATES - Regimen: Daily Repeat; type: toxicity, organism-based, Sprague-Dawley; parameters: regimen Daily Repeat, gender Male, age 6 weeks; settings: in vivo, po, 100 mg/kg, […], tissue Blood, route gavage, dose level Low, time 7 day
metric: APTT (s)

[[record]]
mol_smiles = "CN/C(=N/CCSCc1nc[nH]c1C)NC#N"
recorded_measurement = 18.3

[[record]]
mol_smiles = "COC(=O)C1=C(C)NC(C)=C(C(=O)OC)C1c1ccccc1[N+](=O)[O-]"
recorded_measurement = 14.8

[[record]]
mol_smiles = "CCOc1ccc(NC(C)=O)cc1"
recorded_measurement = 16.8

[[record]]
mol_smiles = "O=C(OC[C@H]1O[C@@H](OC(=O)c2cc(O)c(O)c(OC(=O)c3cc(O)c(O)c(O)c3)c2)[C@H](OC(=O)c2cc(O)c(O)c(OC(=O)c3cc(O)c(O)c(O)c3)c2)[C@@H](OC(=O)c2cc(O)c(O)c(OC(=O)c3cc(O)c(O)c(O)c3)c2)[C@@H]1OC(=O)c1cc(O)c(O)c(OC(=O)c2cc(O)c(O)c(O)c2)c1)c1cc(O)c(O)c(OC(=O)c2cc(O)c(O)c(O)c2)c1"
recorded_measurement = 16.3

[[record]]
mol_smiles = "CNC(=C[N+](=O)[O-])NCCSCc1ccc(CN(C)C)o1"
recorded_measurement = 19.8

[[record]]
mol_smiles = "Cc1nnc2n1-c1ccc(Cl)cc1C(c1ccccc1Cl)=NC2"
recorded_measurement = 20.5


====

// ALP lookup, one value per entry
species on record: Rattus norvegicus; assay: Open TG-GATES - Regimen: Daily Repeat; type: toxicity, organism-based, Sprague-Dawley; set-up: regimen Daily Repeat, gender Male, age 6 weeks; conditions: in vivo, po, 100 mg/kg, […], tissue Plasma, route gavage, dose level Low, time 14 day
metric: ALP (IU/L)

[[record]]
mol_smiles = "Cc1nnc2n1-c1ccc(Cl)cc1C(c1ccccc1Cl)=NC2"
recorded_measurement = 1617

[[record]]
mol_smiles = "CCOc1ccc(NC(C)=O)cc1"
recorded_measurement = 1582

[[record]]
mol_smiles = "O=C(OC[C@H]1O[C@@H](OC(=O)c2cc(O)c(O)c(OC(=O)c3cc(O)c(O)c(O)c3)c2)[C@H](OC(=O)c2cc(O)c(O)c(OC(=O)c3cc(O)c(O)c(O)c3)c2)[C@@H](OC(=O)c2cc(O)c(O)c(OC(=O)c3cc(O)c(O)c(O)c3)c2)[C@@H]1OC(=O)c1cc(O)c(O)c(OC(=O)c2cc(O)c(O)c(O)c2)c1)c1cc(O)c(O)c(OC(=O)c2cc(O)c(O)c(O)c2)c1"
recorded_measurement = 726.5

[[record]]
mol_smiles = "CNC(=C[N+](=O)[O-])NCCSCc1ccc(CN(C)C)o1"
recorded_measurement = 793

[[record]]
mol_smiles = "CN/C(=N/CCSCc1nc[nH]c1C)NC#N"
recorded_measurement = 969.6

[[record]]
mol_smiles = "COC(=O)C1=C(C)NC(C)=C(C(=O)OC)C1c1ccccc1[N+](=O)[O-]"
recorded_measurement = 1646.4


====

species on record: Rattus norvegicus; assay: Open TG-GATES - Regimen: Single; assay type: toxicity, organism-based, Sprague-Dawley; design: regimen Single, gender Male, age 6 weeks; conditions: in vivo, po, 100 mg/kg, 9 h, tissue Blood, route gavage, dose level Low
// Lym lookup, one value per entry
metric: Lym (%)

[[record]]
mol_smiles = "Cc1nnc2n1-c1ccc(Cl)cc1C(c1ccccc1Cl)=NC2"
metric = "Lym"
unit_of_measurement = "%"
recorded_measurement = 73.8

[[record]]
mol_smiles = "O=C(OC[C@H]1O[C@@H](OC(=O)c2cc(O)c(O)c(OC(=O)c3cc(O)c(O)c(O)c3)c2)[C@H](OC(=O)c2cc(O)c(O)c(OC(=O)c3cc(O)c(O)c(O)c3)c2)[C@@H](OC(=O)c2cc(O)c(O)c(OC(=O)c3cc(O)c(O)c(O)c3)c2)[C@@H]1OC(=O)c1cc(O)c(O)c(OC(=O)c2cc(O)c(O)c(O)c2)c1)c1cc(O)c(O)c(OC(=O)c2cc(O)c(O)c(O)c2)c1"
metric = "Lym"
unit_of_measurement = "%"
recorded_measurement = 80.4

[[record]]
mol_smiles = "COC(=O)C1=C(C)NC(C)=C(C(=O)OC)C1c1ccccc1[N+](=O)[O-]"
metric = "Lym"
unit_of_measurement = "%"
recorded_measurement = 80.2

[[record]]
mol_smiles = "CN/C(=N/CCSCc1nc[nH]c1C)NC#N"
metric = "Lym"
unit_of_measurement = "%"
recorded_measurement = 74

[[record]]
mol_smiles = "CNC(=C[N+](=O)[O-])NCCSCc1ccc(CN(C)C)o1"
metric = "Lym"
unit_of_measurement = "%"
recorded_measurement = 72


====

// KIDNEY_L lookup, one value per entry
organism: Rattus norvegicus; test: Open TG-GATES - Regimen: Single; assay type: toxicity, organism-based, Sprague-Dawley; set-up: regimen Single, gender Male, age 6 weeks; settings: in vivo, po, 1000 mg/kg, 3 h, tissue Kidney, route gavage, dose level High
metric: KIDNEY_L (g)

[[record]]
compound = "COC(=O)C1=C(C)NC(C)=C(C(=O)OC)C1c1ccccc1[N+](=O)[O-] [NIFEDIPINE]"
recorded_measurement = 0.9

[[record]]
compound = "CN/C(=N/CCSCc1nc[nH]c1C)NC#N [CIMETIDINE]"
recorded_measurement = 1

[[record]]
compound = "Cc1nnc2n1-c1ccc(Cl)cc1C(c1ccccc1Cl)=NC2 [TRIAZOLAM]"
recorded_measurement = 0.9

[[record]]
compound = "O=C(OC[C@H]1O[C@@H](OC(=O)c2cc(O)c(O)c(OC(=O)c3cc(O)c(O)c(O)c3)c2)[C@H](OC(=O)c2cc(O)c(O)c(OC(=O)c3cc(O)c(O)c(O)c3)c2)[C@@H](OC(=O)c2cc(O)c(O)c(OC(=O)c3cc(O)c(O)c(O)c3)c2)[C@@H]1OC(=O)c1cc(O)c(O)c(OC(=O)c2cc(O)c(O)c(O)c2)c1)c1cc(O)c(O)c(OC(=O)c2cc(O)c(O)c(O)c2)c1 [TANNIC ACID]"
recorded_measurement = 0.9

[[record]]
compound = "CNC(=C[N+](=O)[O-])NCCSCc1ccc(CN(C)C)o1 [RANITIDINE]"
recorded_measurement = 1


====

organism: Rattus norvegicus; assay: Open TG-GATES - Regimen: Single; type: toxicity, organism-based, Sprague-Dawley; design: regimen Single, gender Male, age 6 weeks; details: in vivo, po, 1000 mg/kg, 6 h, tissue Plasma, route gavage, dose level High
// GLC lookup, one value per entry
metric: GLC (mg/dL)

[[record]]
mol_smiles = "O=C(OC[C@H]1O[C@@H](OC(=O)c2cc(O)c(O)c(OC(=O)c3cc(O)c(O)c(O)c3)c2)[C@H](OC(=O)c2cc(O)c(O)c(OC(=O)c3cc(O)c(O)c(O)c3)c2)[C@@H](OC(=O)c2cc(O)c(O)c(OC(=O)c3cc(O)c(O)c(O)c3)c2)[C@@H]1OC(=O)c1cc(O)c(O)c(OC(=O)c2cc(O)c(O)c(O)c2)c1)c1cc(O)c(O)c(OC(=O)c2cc(O)c(O)c(O)c2)c1"
recorded_measurement = 183.4

[[record]]
mol_smiles = "Cc1nnc2n1-c1ccc(Cl)cc1C(c1ccccc1Cl)=NC2"
recorded_measurement = 184.2

[[record]]
mol_smiles = "CNC(=C[N+](=O)[O-])NCCSCc1ccc(CN(C)C)o1"
recorded_measurement = 193.4

[[record]]
mol_smiles = "COC(=O)C1=C(C)NC(C)=C(C(=O)OC)C1c1ccccc1[N+](=O)[O-]"
recorded_measurement = 229.6

[[record]]
mol_smiles = "CN/C(=N/CCSCc1nc[nH]c1C)NC#N"
recorded_measurement = 200.8

